// provenance: a melting point compilation (Tetko et al.)

For each record, write down the corresponding melting point.

**Query** Any idea what its melting point is? The molecule is O=C(O)C=Cc1cc(Br)c2c(c1)OCCO2
**Result** 267 to 269 °C

**Query** Another: Cc1ccc(CNC(=O)c2c[nH]nc2N)cc1
**Result** 168 to 170 °C

**Query** Another: CC(C)c1[nH]ncc1C(=O)O
**Result** 216 to 218 °C

**Query** Another: O=C(O)CCS(=O)c1ccc2c(c1)OCCO2 (stereo not drawn)
**Result** 110 to 112 °C

**Query** Another: CCc1c(C)nn(-c2cccc(C(=O)O)c2)c1C
**Result** 149 to 151 °C

**Query** Another: O=C(O)c1c[nH]cc1C(=O)O
**Result** 311 to 313 °C

**Query** Another: COc1ccc(CC2CCNCC2)cc1
**Result** 55 to 57 °C

**Query** Another: Cc1cc(F)ccc1-n1ccc(C(=O)O)n1
**Result** 197 to 199 °C

**Query** Another: CCN1CCN(c2ccc(C(C)=O)cc2F)CC1
**Result** 68 to 70 °C

**Query** Another: NC(=O)CNS(=O)(=O)c1ccc(Br)c(C(=O)O)c1
**Result** 226 to 228 °C

**Query** Another: O=C(O)C(NC1CC1)c1ccc(O)cc1 (stereo not drawn)
**Result** 210 to 212 °C

**Query** Another: Nc1cccc(Cn2[nH]c(=O)ccc2=O)c1
**Result** 163 to 165 °C

**Query** Another: CC(Cc1ccc(Cl)cc1)NC(=O)OC(C)(C)C (stereo not drawn)
**Result** 93 to 95 °C

**Query** Another: NS(=O)(=O)c1cc(C(=O)O)ccc1Br
**Result** 275 to 277 °C

**Query** Another: Nc1nccc(-c2cccnc2)n1
**Result** 188 to 190 °C

**Query** Another: N#CC=C(Cl)c1ccccc1
**Result** 32 to 34 °C

**Query** Another: COCCOc1ccc(NC(=O)OCC(F)(F)F)cn1
**Result** 86 to 88 °C

**Query** Another: CCCOc1ccccc1C(N)=S
**Result** 100 to 102 °C

**Query** Another: Cc1ccc(-c2ncc(C(=O)O)s2)c(C)c1
**Result** 171 to 173 °C

**Query** Another: COC(=O)c1cc(OC)c(OC(F)F)cc1N
**Result** 89 to 91 °C

**Query** Another: O=C(CCl)NCC1CCSCC1
**Result** 83 to 85 °C

**Query** Another: CC(C)(C)OC(=O)N1CCCC1CC(=O)O (stereo not drawn)
**Result** 107 to 109 °C

**Query** Another: O=C(Nc1ccc(F)cc1)c1ccc2c(c1)OCO2
**Result** 186 to 188 °C

**Query** Another: Nc1ccc(-c2csc(N3CCOCC3)n2)cc1
**Result** 174 to 176 °C

**Query** Another: CCS(=O)(=O)c1ccc(Br)cc1
**Result** 53 to 55 °C

**Query** Another: O=c1[nH]c(-c2ccncc2)cs1
**Result** 303 to 305 °C

**Query** Another: O=C1C=C(c2ccccc2)CCC1
**Result** 63 to 65 °C

**Query** Another: NS(=O)(=O)c1ccc(CC(=O)O)s1
**Result** 128 to 130 °C

###

For each record, write down the corresponding melting point.

**Query** Any idea what its melting point is? The molecule is Cc1ccc(Br)c(C(=O)O)c1
**Result** 139 to 141 °C

**Query** Another: O=C1OCCN1c1cc([N+](=O)[O-])ccc1Cl
**Result** 157 to 159 °C

**Query** Another: c1c[nH]c(C2CCCN2)c1 (centres undefined)
**Result** 75 to 77 °C

**Query** Another: COc1ccc2cc[nH]c(=O)c2c1
**Result** 201 to 203 °C

**Query** Another: CCCS(=O)(=O)N1CCCC(C(=O)O)C1 (centres undefined)
**Result** 122 to 124 °C

**Query** Another: CC(C)(C)OC(=O)N1CCCC(C(=O)O)C1 (centres undefined)
**Result** 160 to 162 °C

**Query** Another: Nc1ccc2c(Br)ccc(Cl)c2n1
**Result** 249 to 251 °C

**Query** Another: O=C(O)CCCC(=O)Nc1cccnc1N1CCCC1
**Result** 142 to 144 °C

**Query** Another: O=C(O)Cc1ccc(NC(=O)c2cscn2)cc1
**Result** 184 to 186 °C

**Query** Another: Nc1cc(Cl)c(I)cn1
**Result** 99 to 101 °C

**Query** Another: CC(=O)c1c[nH]cc1-c1ccccc1
**Result** 156 to 158 °C

**Query** Another: NCc1ccc(-c2cccnc2)cc1
**Result** 66 to 68 °C

**Query** Another: O=C1NCCN1c1ccccc1[N+](=O)[O-]
**Result** 153 to 155 °C

**Query** Another: CC(C)(C)C(=O)NCC(=O)O
**Result** 132 to 134 °C

###

value.type: melting point

**Query** Any idea what its melting point is? The compound is Cc1cccc(-n2nc(C(=O)O)cc2-c2ccc(-c3ccccc3)cc2)c1
**Result** 215 to 217 °C

**Query** Another: c1cncc(NCc2ccsc2)c1
**Result** 62 to 64 °C

**Query** Another: CCN(CC)S(=O)(=O)c1cccc(C(=O)NN)c1
**Result** 133 to 135 °C

**Query** Another: Cc1ccc(C)n1-c1ccc(N)cc1
**Result** 93 to 95 °C

**Query** Another: CCn1c(=O)n(CC(=O)O)c2ccccc21
**Result** 229 to 231 °C

**Query** Another: CC(CC(=O)O)S(=O)(=O)c1ccc(F)cc1 (stereo unspecified)
**Result** 126 to 128 °C

###

value.type: melting point

**Query** Any idea what its melting point is? The molecule is Cn1ncc2c(Cl)nc(Cl)nc21
**Result** 86 to 88 °C

**Query** Another: CNc1cc(C(=O)O)cc(Cl)n1
**Result** 259 to 261 °C

**Query** Another: Cc1noc(C)c1S(N)(=O)=O
**Result** 151 to 152 °C

**Query** Another: Cc1cc(F)c2c(c1)C(=O)C(=O)N2
**Result** 225 to 227 °C

**Query** Another: CC(=O)c1ccc(SCC(=O)O)c(F)c1
**Result** 140 to 142 °C

**Query** Another: CC(C)n1c(Cl)nnc1-c1ccccc1
**Result** 129 to 131 °C

**Query** Another: Cc1ccc(C(=O)COc2ccc(C=O)cc2)cc1C
**Result** 65 to 67 °C

**Query** Another: CCOC(=O)c1cc(C(=O)O)cc([N+](=O)[O-])c1
**Result** 178 to 180 °C

**Query** Another: CC(=O)Nc1cc(S(=O)(=O)Cl)ccc1O
**Result** 289 to 291 °C

**Query** Another: N#Cc1nc(-c2ccco2)oc1N1CCNCC1
**Result** 129 to 131 °C

**Query** Another: N#CCNc1cccc(F)c1
**Result** 39 to 41 °C

**Query** Another: CC1CCN(S(=O)(=O)c2ccc(C(=O)O)cc2)CC1
**Result** 180 to 182 °C

**Query** Another: Cc1cc(C(=O)O)nn1-c1ccccn1
**Result** 157 to 159 °C

###

For each record, write down the corresponding melting point.

**Query** Any idea what its melting point is? The molecule is CN1CC(=O)N(CC(=O)O)C1=O
**Result** 139 to 141 °C

**Query** Another: NNC(=O)c1cc2c(s1)CCCCC2
**Result** 253 to 255 °C

**Query** Another: N#Cc1ccc(S(=O)(=O)NCC2CCCO2)cc1 (configuration not stated)
**Result** 123 to 125 °C

**Query** Another: COc1ccccc1C1(C(=O)O)CC1
**Result** 131 to 133 °C

**Query** Another: O=C(O)c1cnc(Cl)cc1Cl
**Result** 158 to 160 °C

**Query** Another: N#Cc1ccccc1NCc1ccco1
**Result** 60 to 62 °C

**Query** Another: CC(C)(C)OC(=O)c1ccc(C#N)cc1
**Result** 74 to 76 °C

**Query** Another: CCOC(=O)/C(C#N)=C\Nc1ccc2c(c1)OCCCO2
**Result** 124 to 126 °C

**Query** Another: CN(C)S(=O)(=O)c1ccc(O)c(N)c1
**Result** 154 to 156 °C

**Query** Another: NC(=O)Nc1ccc(N)cc1
**Result** 155 to 157 °C

**Query** Another: COc1ccccc1CNc1nc(-c2ccc(C)cc2)cs1
**Result** 96 to 98 °C

**Query** Another: NC1CCCC(C(=O)NC2CC2)C1 (configuration not stated)
**Result** 97 to 99 °C

**Query** Another: NC1CCN(c2ccc(Cl)c(F)c2)C1=O (configuration not stated)
**Result** 69 to 71 °C

**Query** Another: O=C(NC1CCCNC1)c1ccccc1 (configuration not stated)
**Result** 130 to 132 °C

**Query** Another: O=c1ccc2c(Cl)ccc(Cl)c2[nH]1
**Result** 194 to 196 °C

**Query** Another: CCCC(C)S(N)(=O)=O (configuration not stated)
**Result** 48 to 50 °C

**Query** Another: COc1ccc2cc(-c3cc(C(=O)O)c4ccccc4n3)ccc2c1
**Result** 258 to 260 °C

**Query** Another: Cc1nc(C(=O)O)c2ccccn12
**Result** 187 to 189 °C

**Query** Another: Cc1cc(C)c(NC(=O)CCl)c(C)c1
**Result** 153 to 157 °C

**Query** Another: CCOC(=O)c1[nH]c2c(c1C)C(=O)CC(C)(C)C2
**Result** 159 to 163 °C

**Query** Another: O=C(Nc1cccc(C(=O)O)c1)NC1CC1
**Result** 236 to 238 °C

**Query** Another: CCOC(=O)C(NS(=O)(=O)CC)C(=O)OCC
**Result** 51 to 53 °C

**Query** Another: Cc1ccc(Cl)c(C(=O)O)c1N
**Result** 152 to 154 °C

**Query** Another: Cc1cc(N)ncn1
**Result** 186 to 188 °C

**Query** Another: COC(=O)c1ccc2c(c1)CCCN2
**Result** 71 to 73 °C

**Query** Another: O=C(O)Cc1cc(=O)n(-c2ccccc2)[nH]1
**Result** 98 to 102 °C

**Query** Another: Cc1cc(-c2ncc[nH]2)c(=O)[nH]n1
**Result** 254 to 256 °C

**Query** Another: CC(=O)c1sc(-c2ccc(O)cc2)nc1C
**Result** 133 to 135 °C

**Query** Another: Cc1ncc(C(=O)O)c(C)n1
**Result** 151 to 153 °C

**Query** Another: O=S(=O)(Cl)c1csc2ccc(F)cc12
**Result** 129 to 131 °C

**Query** Another: Cc1ccc(Oc2cc(C#N)ccn2)cc1C
**Result** 63 to 65 °C

**Query** Another: Cc1ccc(N)c(OCC(=O)N(C)C)c1
**Result** 83 to 85 °C

**Query** Another: CN(C)C=C1C(=O)CCCC1=O
**Result** 111 to 113 °C

**Query** Another: Cc1cccc2[nH]c(CCC(=O)O)nc12
**Result** 238 to 240 °C

**Query** Another: Nc1ccc(Cl)cc1C(=O)Nc1ccc(Cl)cn1
**Result** 177 to 179 °C

**Query** Another: O=[N+]([O-])c1cccc(-c2nccs2)c1
**Result** 238 to 240 °C

**Query** Another: CC(Br)c1ccc([N+](=O)[O-])cc1 (configuration not stated)
**Result** 33 to 35 °C

**Query** Another: CCOC(=O)c1cnn2c(C(=O)OCC)c(CCCO)cnc12
**Result** 70 to 72 °C

**Query** Another: NS(=O)(=O)c1cc(Cl)ccc1Cl
**Result** 179 to 181 °C

**Query** Another: Cc1cc(Br)cc2ccc(=O)[nH]c12
**Result** 278 to 280 °C

**Query** Another: O=C(O)C1CCN(S(=O)(=O)c2ccc3c(c2)OCCCO3)CC1
**Result** 173 to 178 °C

**Query** Another: O=C(O)CCNS(=O)(=O)C(F)(F)F
**Result** 87 to 89 °C

**Query** Another: O=C(O)C1CS(=O)(=O)c2ccccc2O1 (configuration not stated)
**Result** 239 to 241 °C

**Query** Another: O=C(CCl)N1CCOC1=O
**Result** 53 to 55 °C

**Query** Another: Cc1ccc(S(=O)(=O)N2CCCCC2C)cc1C(=O)O (configuration not stated)
**Result** 149 to 151 °C

**Query** Another: Cc1nn(C)cc1CCC(=O)O
**Result** 114 to 116 °C

**Query** Another: CCOc1ccc(OCc2ccc(C(=O)NN)cc2)cc1
**Result** 127 to 129 °C

**Query** Another: C#Cc1nc2ccccc2n1C
**Result** 82 to 84 °C

**Query** Another: CCOC(=O)COc1ccccc1C(C)=O
**Result** 44 to 46 °C

**Query** Another: Nc1cccc(-c2ccc(Cl)c(Cl)c2)c1
**Result** 97 to 99 °C

**Query** Another: CC(=O)N(C)c1nc(C=O)cs1
**Result** 164 to 166 °C

**Query** Another: Cn1c(Cl)nnc1-c1ccccc1
**Result** 161 to 163 °C

**Query** Another: O=C(O)COc1ccc(Cl)cc1C1CCCCC1
**Result** 167 to 169 °C

**Query** Another: NCC1(O)CCSCC1
**Result** 65 to 67 °C

**Query** Another: CC(=O)c1sc(NCCCC(=O)O)nc1C
**Result** 140 to 142 °C

**Query** Another: Cc1ccc(NC(=O)OC(C)(C)C)cc1O
**Result** 109 to 111 °C

**Query** Another: Nc1nc2ccccc2n1CCCc1ccccc1
**Result** 146 to 148 °C
